# assay-method-text: In vitro stability in rat plasma
# Format: in vitro ADME
# experimental-conditions: 60 minutes incubation with rat plasma
readout-label: Plasma stability (in words)

The recorded Plasma stability (in words) for COC(=O)c1ccc(/C=N/NS(=O)(=O)c2ccc(OC)c(OC)c2)cc1 [Compound 7] is unstable

The recorded Plasma stability (in words) for COc1ccc(S(=O)(=O)N/N=C/c2ccc(C#N)cc2)cc1OC [Compound 8] is unstable

The recorded Plasma stability (in words) for COc1ccc(S(=O)(=O)N/N=C/c2cccc(C(=O)O)c2)cc1OC [Compound 4] is very stable

The recorded Plasma stability (in words) for COC(=O)c1cccc(/C=N/N(C)S(=O)(=O)c2ccc(OC)c(OC)c2)c1 [Compound 5] is very stable

API: the following record is the query input.
The recorded Plasma stability (in words) for COC(=O)c1ccc(/C=N/N(C)S(=O)(=O)c2ccc(OC)c(OC)c2)cc1 [Compound 6] is unstable
